target: PARP7 (Homo sapiens (Human)); experiment: Enzymatic assay for inhibition of PARP7: TR-FRET displacement of biotinylated Probe A from the TIPARP active site; conditions: Table A-1
Sequence (Q7Z3E1 whole entry): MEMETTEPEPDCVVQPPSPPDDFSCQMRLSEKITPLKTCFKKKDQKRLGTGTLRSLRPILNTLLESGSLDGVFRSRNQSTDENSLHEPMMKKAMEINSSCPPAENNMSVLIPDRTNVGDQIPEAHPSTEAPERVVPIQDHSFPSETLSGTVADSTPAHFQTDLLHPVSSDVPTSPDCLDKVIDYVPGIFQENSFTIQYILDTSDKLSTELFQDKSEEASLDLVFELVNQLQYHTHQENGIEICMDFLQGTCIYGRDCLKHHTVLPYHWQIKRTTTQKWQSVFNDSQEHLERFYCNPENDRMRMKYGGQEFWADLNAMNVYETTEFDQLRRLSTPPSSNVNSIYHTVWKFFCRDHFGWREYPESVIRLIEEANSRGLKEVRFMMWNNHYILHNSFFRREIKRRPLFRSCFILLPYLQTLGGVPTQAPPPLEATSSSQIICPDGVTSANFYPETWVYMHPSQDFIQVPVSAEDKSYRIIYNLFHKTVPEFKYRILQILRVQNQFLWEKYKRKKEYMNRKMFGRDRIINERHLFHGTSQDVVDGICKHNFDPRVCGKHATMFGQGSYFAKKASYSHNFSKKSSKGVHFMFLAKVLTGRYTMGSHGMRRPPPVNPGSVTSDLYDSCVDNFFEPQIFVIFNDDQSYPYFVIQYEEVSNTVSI
# IC50 per record follows

For orientation, consider the following solved cases.
[[record]]
compound = "CC(=O)N1CCC(Oc2cnc3c(c2)CN(c2cn[nH]c(=O)c2C(F)(F)F)C3)CC1"
experimentaltarget = "PARP7 (Homo sapiens (Human))"
valuereported = "0.1 to 1 µM"

[[record]]
compound = "C[C@H](COc1cn[nH]c(=O)c1C(F)(F)F)OCCC(=O)N1CCN(c2ncc(C(F)(F)F)cn2)CC1 (single isomer, unassigned) [Example 544 Isomer D]"
experimentaltarget = "PARP7 (Homo sapiens (Human))"
valuereported = "0.1 to 1 µM"

[[record]]
compound = "O=c1[nH]ncc(N2Cc3cccnc3C2)c1C(F)(F)F"
experimentaltarget = "PARP7 (Homo sapiens (Human))"
valuereported = "< 0.1 µM"

[[record]]
compound = "N#Cc1ccc(NCCC(=O)Nc2cncc(OCC3c4ccccc4CN3c3cn[nH]c(=O)c3C(F)(F)F)c2)nc1 (centres unmarked)"
experimentaltarget = "PARP7 (Homo sapiens (Human))"
valuereported = "< 0.1 µM"

[[record]]
compound = "O=C(CCOC[C@H](CC1CCNCC1)Nc1cn[nH]c(=O)c1C(F)(F)F)N1CCN(c2ncc(C(F)(F)F)cn2)CC1"
experimentaltarget = "PARP7 (Homo sapiens (Human))"
valuereported = "≥ 1 µM"


Could you tell me which IC50 is on file for COC[C@H](COCCC(=O)N1CCN(c2ncc(C(F)(F)F)cn2)CC1)Oc1cn[nH]c(=O)c1Br ?
≥ 1 µM

Name the reported IC50 value associated with the compound O=C(CCOC[C@H](Nc1cn[nH]c(=O)c1C(F)(F)F)[C@@H]1CCOC1)N1CCN(c2ncc(C(F)(F)F)cn2)CC1 [Example 614 Isomer D]
< 0.1 µM

Please give the measured IC50 for this compound: N#Cc1ccc(N2CCN(C(=O)c3ccnc(OC[C@@H]4c5ccccc5CN4c4cn[nH]c(=O)c4C(F)(F)F)n3)CC2)nc1 (single isomer, unassigned) [Example 38 Isomer A]
< 0.1 µM

Reported IC50 for COc1ccc2c(c1)CN(c1cn[nH]c(=O)c1C)C2 : what is it?
0.1 to 1 µM

What value of IC50 has been reported for the following compound? COC[C@@H](CO[C@H](C)CC(=O)N1CCN(c2ccc(C#N)cn2)CC1)Oc1cn[nH]c(=O)c1C(F)(F)F (single isomer, unassigned) [Example 571 Isomer D]
0.1 to 1 µM

May I ask what IC50 has been recorded for C[C@@H](COc1cn[nH]c(=O)c1Cl)OCCC(=O)N1CCN(c2ncc(Cl)cn2)CC1 (single isomer, unassigned) [Example 577 Isomer B] ?
< 0.1 µM

Name the recorded IC50 for N#Cc1c(OCCOCCC(=O)N2CCN(c3ncc(Cl)cn3)CC2)cn[nH]c1=O .
< 0.1 µM

Name the reported IC50 value associated with the compound O=C(C[C@H]1CC[C@@H](CNc2cn[nH]c(=O)c2C(F)(F)F)O1)N1CCN(c2ncc(Cl)cn2)CC1 (single isomer, unassigned) [Example 567 Isomer A]
< 0.1 µM

Look up IC50 for this compound: O=C(C[C@H]1CC[C@H]([C@@H]2CCCN2c2cn[nH]c(=O)c2C(F)(F)F)O1)N1CCN(c2ncc(Cl)cn2)CC1 [Example 147D]
< 0.1 µM
